molecular target: TSH receptor of isolated porcine thyroid cells (porcine, UniProt Q8SPP9 22-764); test: cell-based or functional assay
Sequence (Q8SPP9 22-764): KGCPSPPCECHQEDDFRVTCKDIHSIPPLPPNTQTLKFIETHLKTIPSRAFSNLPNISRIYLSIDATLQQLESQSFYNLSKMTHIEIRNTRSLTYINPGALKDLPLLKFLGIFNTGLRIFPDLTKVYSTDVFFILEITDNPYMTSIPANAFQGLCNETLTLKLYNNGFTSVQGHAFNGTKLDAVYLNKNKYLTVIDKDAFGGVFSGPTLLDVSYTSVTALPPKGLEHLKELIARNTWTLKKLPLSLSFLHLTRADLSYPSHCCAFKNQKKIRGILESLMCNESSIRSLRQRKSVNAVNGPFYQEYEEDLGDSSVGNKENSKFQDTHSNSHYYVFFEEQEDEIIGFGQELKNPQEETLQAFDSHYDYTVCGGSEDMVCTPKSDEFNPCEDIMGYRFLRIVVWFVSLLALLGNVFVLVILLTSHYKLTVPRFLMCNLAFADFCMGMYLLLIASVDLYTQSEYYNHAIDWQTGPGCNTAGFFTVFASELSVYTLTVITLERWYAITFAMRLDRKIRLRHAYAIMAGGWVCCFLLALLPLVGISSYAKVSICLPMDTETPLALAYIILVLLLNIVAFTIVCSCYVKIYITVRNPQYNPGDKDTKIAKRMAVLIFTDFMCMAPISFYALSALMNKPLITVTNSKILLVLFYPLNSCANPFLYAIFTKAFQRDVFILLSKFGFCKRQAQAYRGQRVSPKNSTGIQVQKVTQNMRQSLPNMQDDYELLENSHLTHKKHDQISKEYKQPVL
# Stimulation (%) of cyclic AMP, isolated porcine thyroid cells; 2 µg/ml per entry
The response must be a number in % with no trailing unit.

Quick one: Stimulation (%) of cyclic AMP, isolated porcine thyroid cells; 2 µg/ml for 16E5 IgG (antibody, V domains shown, not shown: a dimerising Fc or GST, mouse monoclonal IgG; also called MAb 16E5) VH: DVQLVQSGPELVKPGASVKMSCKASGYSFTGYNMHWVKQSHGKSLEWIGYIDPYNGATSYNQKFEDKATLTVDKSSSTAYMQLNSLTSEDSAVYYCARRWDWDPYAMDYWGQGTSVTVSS VL: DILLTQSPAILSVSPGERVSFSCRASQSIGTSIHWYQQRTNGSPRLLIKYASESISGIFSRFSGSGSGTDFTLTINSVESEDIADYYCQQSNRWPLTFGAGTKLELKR ? 269

Try 17D2 IgG (antibody, V domains shown, not shown: a dimerising Fc or GST, mouse monoclonal IgG) VH: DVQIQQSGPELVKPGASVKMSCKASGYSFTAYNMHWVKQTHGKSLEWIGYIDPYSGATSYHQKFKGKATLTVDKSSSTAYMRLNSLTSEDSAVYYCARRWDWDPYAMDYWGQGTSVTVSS VL: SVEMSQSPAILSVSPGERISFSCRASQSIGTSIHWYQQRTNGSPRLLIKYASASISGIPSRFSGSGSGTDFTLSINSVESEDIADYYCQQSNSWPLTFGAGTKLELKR next. 134

Try 14D3 IgG (antibody, V domains shown, not shown: a dimerising Fc or GST, mouse monoclonal IgG; also called MAb 14D3) VH: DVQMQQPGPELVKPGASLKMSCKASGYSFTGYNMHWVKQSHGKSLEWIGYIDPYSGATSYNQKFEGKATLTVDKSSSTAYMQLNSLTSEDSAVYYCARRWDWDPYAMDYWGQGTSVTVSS VL: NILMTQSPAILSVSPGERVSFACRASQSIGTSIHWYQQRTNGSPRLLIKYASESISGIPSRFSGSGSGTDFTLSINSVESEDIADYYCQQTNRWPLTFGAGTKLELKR next. 323

Please turn your attention to the following entry.
Quick one: Stimulation (%) of cyclic AMP, isolated porcine thyroid cells; 2 µg/ml for 2B4 IgG (antibody, V domains shown, not shown: a dimerising Fc or GST, mouse monoclonal IgG; also called 2B4 MAb) VH: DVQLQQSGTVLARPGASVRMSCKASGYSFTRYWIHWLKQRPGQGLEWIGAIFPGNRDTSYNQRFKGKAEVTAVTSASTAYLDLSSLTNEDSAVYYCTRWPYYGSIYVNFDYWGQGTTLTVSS VL: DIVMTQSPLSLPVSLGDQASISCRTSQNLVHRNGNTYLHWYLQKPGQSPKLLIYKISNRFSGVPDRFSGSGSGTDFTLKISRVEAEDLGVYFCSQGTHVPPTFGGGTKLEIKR ? 116
